Tested on: B cell line, TNFa signaling counterscreen reporter
Test: TNFa signaling inhibitors in B cell line, dose response, counter-screen (AID 1259334);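 note: cells stimulated with TNFa after compound preincubation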
Activity calls are given as the source filed them. Cut-off read from the data, not from the text of the source: active = AC50 below about 11 µM.
measured_attribute: AC50

# compound, result
rows = [
    ("OC(c1cc(-c2cccc(Cl)c2)nc2ccccc12)C1CCCCN1 (centres undefined)", "2.26 µM"),
    ("O=C(Nc1ccccn1)c1ccc(-c2ccccc2)cc1", "2.91 µM"),
    ("N#C[C@H]1[C@H](c2ccc(C#Cc3ccccc3F)cc2)[C@@H](CO)N1C(=O)C1CCC1", "> 20 µM (inactive)"),
    ("Cc1cc(OCC(=O)OCC(=O)NCc2ccco2)ccc1Cl", "> 20 µM (inactive)"),
    ("OC1(c2ccc(Cl)c(C(F)(F)F)c2)CCN(CCCC(c2ccc(F)cc2)c2ccc(F)cc2)CC1", "8.99 µM"),
]

Then this compound:
Data request, read-out AC50, for "CCCNC(=O)N1[C@H](C#N)[C@H](c2ccc(C#Cc3cccc(F)c3)cc2)[C@H]1CO"
8.92 µM

---

Tested on: B cell line, TNFa signaling counterscreen reporter
Assay: TNFa signaling inhibitors in B cell line, dose response, counter-screen (AID 1259334);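 note: cells stimulated with TNFa after compound preincubation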
measured_attribute: AC50

Example entries and their recorded answers appear below.
# compound, measured_attribute, result
records = [
    ("COc1cccc2c1C(=O)c1c(O)c3c(c(O)c1C2=O)C[C@@](O)(C(C)=O)C[C@@H]3O[C@H]1C[C@H](N)[C@H](O)[C@H](C)O1", "AC50", "359 nM"),
    ("CC(C)Cc1ccc(C(C)CC2=CCC(CN(C)C)C2=O)cc1 (centres undefined)", "AC50", "2410 nM"),
]

Data request, read-out AC50, for "CC(C)(C)c1cc(C=C(C#N)C#N)cc(C(C)(C)C)c1O"
1220 nM

Data request, read-out AC50, for COc1ccc(CC2C(=O)NC(C)C(=O)N(C)C3Cc4ccc(cc4)Oc4cc(ccc4O)CC(C(=O)NC(C)C(=O)NC(C)C(=O)N2C)N(C)C3=O)cc1 (centres undefined)
4.64 nM

---

System: B cell line, TNFa signaling counterscreen reporter
Test: TNFa signaling inhibitors in B cell line, dose response, counter-screen (AID 1259334);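 note: cells stimulated with TNFa after compound preincubation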
compounds and their reported AC50

Example entries and their recorded answers appear below.
# compound, target_system, AC50
measured = [
    ("O=C(Cn1ncc(Cl)c(Cl)c1=O)NC1CCCCC1", "B cell line, TNFa signaling counterscreen reporter", "2.42 µM"),
    ("O=C(COc1cccnc1[N+](=O)[O-])c1ccc(Cl)s1", "B cell line, TNFa signaling counterscreen reporter", "4.71 µM"),
    ("Cc1ccc2c(=O)c3ccccc3n(CCCN)c2c1C", "B cell line, TNFa signaling counterscreen reporter", "3.28 µM"),
    ("O=C(Cc1ccccc1)N1CC[C@@H]2[C@H]1c1cc(-c3cccc(F)c3)ccc1N[C@@H]2CO", "B cell line, TNFa signaling counterscreen reporter", "10.7 µM"),
    ("CCC1=C(CC2NCCc3ccccc32)CC2c3cc(OC)c(OC)cc3CCN2C1 (stereo unspecified)", "B cell line, TNFa signaling counterscreen reporter", "1.19 µM"),
]

Data request, read-out AC50, for "C=CC[n+]1c(/C=C2\C=Cc3cc(C)ccc3N2CC)ccc2ccccc21"
0.951 µM
